# Tested Target: Cathepsin K (Homo sapiens)
# Construct: purchased Biovision K150-100
# Sequence (P43235 115-329): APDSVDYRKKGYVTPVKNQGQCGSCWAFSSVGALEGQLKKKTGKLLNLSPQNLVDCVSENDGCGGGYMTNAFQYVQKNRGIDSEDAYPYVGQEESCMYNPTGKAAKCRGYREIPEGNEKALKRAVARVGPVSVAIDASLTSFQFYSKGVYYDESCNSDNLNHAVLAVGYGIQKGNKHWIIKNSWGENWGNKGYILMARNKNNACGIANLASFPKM
# Experimental Details: Preliminary screening of Cathepsin K (Cathepsin K Inhibitor Screening Kit K150-100, Biovision)
# Type: biochemical
# Experimental Context: 1 μM compound; replicate 2; relative inhibition rate vs 10 μM FF-FMK control; read-out: Inhibition % (1 μM) replicate 2
Reported Endpoint: inhibition at 1 µM (%)

1. CCOC(=O)[C@H]1O[C@@H]1C(=O)N[C@@H](CSCc1ccccc1)C(=O)NCCCCc1ccccc1
2. CCOC(=O)[C@H]1O[C@@H]1C(=O)N[C@@H](CSCc1ccccc1)C(=O)N1CCCC1
Given 1 and 2 , report the one with the higher recorded inhibition at 1 µM. Returns: label corresponding to the selected item.
1
(1: 37%, 2: -4.45%)

A. CCCCCNC(=O)[C@H](CCSC)NC(=O)[C@H]1O[C@@H]1C(=O)OCC
B. CCOC(=O)[C@H]1O[C@@H]1C(=O)N[C@@H](CCSC)C(=O)NC(CC)CC
For the pair A and B , which member has the lower inhibition at 1 µM number? In your reply, give the label of the chosen option.
A
(A: 33.2%, B: 85.2%)

###

# Tested Target: Cathepsin K (Homo sapiens)
# Construct: purchased Biovision K150-100
# Experimental Details: Preliminary screening of Cathepsin K (Cathepsin K Inhibitor Screening Kit K150-100, Biovision)
# Assay type: biochemical
# Experimental Context: 10 μM compound; replicate 1; relative inhibition rate vs 10 μM FF-FMK control
Reported Endpoint: Inhibition % (10 μM) replicate 1 (%)

CCOC(=O)[C@H]1O[C@@H]1C(=O)N[C@@H](CC(C)C)C(=O)NCCC(C)C [zxy-37, E64d, reference compound] | 90.96

a. CCOC(=O)[C@H]1O[C@@H]1C(=O)N[C@H](CSCc1ccccc1)C(=O)NCCc1ccc(OC)cc1
b. CCOC(=O)[C@H]1O[C@@H]1C(=O)N[C@@H](CCSC)C(=O)NCCC(C)C
Kindly identify which of a and b has the larger recorded Inhibition % (10 μM) replicate 1 value. Lab note: record the label of whichever item you select.
a
(a: 67.87%, b: 41.60%)

###

# Tested Target: Cathepsin B (Homo sapiens)
# Construct: purchased Biovision K147-100
# Experimental Details: IC50 determination against Cathepsin B (Biovision kit K147-100)
# Type: biochemical
# Experimental Context: selectivity for Cathepsin B over Cathepsin L
Reported Endpoint: Selectiviy vs Cathepsin L (fold)

Here's what some known entries look like.
CCOC(=O)[C@H]1O[C@@H]1C(=O)N[C@@H](CCSC)C(=O)N1CCC(c2ccccc2)CC1 [Compound 13] | 1563
CCOC(=O)[C@H]1O[C@@H]1C(=O)N[C@@H](CCSC)C(=O)NC(CC)CC [Compound 39] | 129
CCOC(=O)[C@H]1O[C@@H]1C(=O)N[C@@H](CC(C)C)C(=O)NCCC(C)C [zxy-37, E64d, reference compound] | 15
CCOC(=O)[C@H]1O[C@@H]1C(=O)N[C@@H](CCSC)C(=O)NCCCc1ccccc1 [Compound 8] | 210

1. CCCCCCNC(=O)[C@H](CCSC)NC(=O)[C@H]1O[C@@H]1C(=O)OCC [Compound 5]
2. CCOC(=O)[C@H]1O[C@@H]1C(=O)N[C@@H](CCSC)C(=O)NCCCCc1ccccc1 [Compound 40]
Sort 1 and 2 by Selectiviy vs Cathepsin L (fold) descending and give the first. Please identify the chosen entry by its label.
1
(1: 278 fold, 2: 185 fold)
